Assign 2ED50 duration to each entry below.
# System: KM mice
# procedure summary: animal or person
# Assay type: in vivo
# assay setup: KM mice, single tail vein injection at 2×ED50; time from disappearance to recovery of righting reflex
Give just the number in min; leave the unit off.

### Prompt Fill in the blank: the reported 2ED50 duration of COC(=O)C(C)OC(=O)CC[C@@H]1N=C(c2ccccn2)c2c(cc(Cl)c(Cl)c2Cl)-n2c(C)cnc21 (stereo partly shown) [Example 29] is ____.
### Response 4.59

### Prompt Now consider COC1N(C)CC(CC(OC(=O)CC[C@@H]2N=C(c3ccccn3)c3cc(OC(F)(F)F)cc(C)c3-n3c(C)cnc32)OC(=O)OC(C(C)C)C(C)C)CN1C (stereo partly shown) [Example 83] and answer again.
### Response 3.26

### Prompt Now consider CCOC(=O)C(C)OC(=O)CC[C@@H]1N=C(c2ccccn2)c2cc(Br)ccc2-n2c(C)cnc21 (stereo partly shown) [Example 61] and answer again.
### Response 3.01

### Prompt Now consider COC(=O)C1(OC(=O)CC[C@@H]2N=C(c3ccccn3)c3cc(Br)c(Br)cc3-n3c(C)cnc32)CC1 [Example 18] and answer again.
### Response 5.09

### Prompt Now consider CCOC(=O)COC(=O)CC[C@@H]1N=C(c2ccccn2)c2cc(Cl)ccc2-n2c(C)cnc21 [Example 38] and answer again.
### Response 3.25

### Prompt Now consider COC(=O)C1(OC(=O)CC[C@@H]2N=C(c3ccccn3)c3cc(Cl)c(C)c(C)c3-n3c(C)cnc32)CC1 [Example 79] and answer again.
### Response 3.45

### Prompt Now consider COC(=O)COC(=O)CC[C@@H]1N=C(c2ccccn2)c2cc(Br)ccc2-n2c(C)cnc21 [Example 56] and answer again.
### Response 4.08

---

Assign ED50 to each entry below.
# System: KM mice
# procedure summary: animal or person
# Type: in vivo
# assay setup: KM mice (male, 18-22 g), injection via the tail vein, disappearance of righting reflex

### Prompt Fill in the blank: the reported ED50 of CC(=O)O.COC(=O)C1(OC(=O)CC[C@@H]2N=C(c3ccccn3)c3cc(Cl)c(OC(F)(F)F)cc3-n3c(C)cnc32)CC1 [Example 42] is ____.
### Response 8.7 mg/kg

### Prompt Now consider COC(=O)C(C)(C)OC(=O)CC[C@@H]1N=C(c2ccccn2)c2cc(Cl)c(Cl)c(Cl)c2-n2c(C)cnc21 [Example 30] and answer again.
### Response 30.2 mg/kg

### Prompt Now consider COC(=O)C1(OC(=O)CC[C@@H]2N=C(c3ccccn3)c3c(Cl)cc(OC(F)(F)F)cc3-n3c(C)cnc32)CC1.O=C(O)O [Example 43] and answer again.
### Response 29.5 mg/kg

### Prompt Now consider COC(=O)C1(OC(=O)CC[C@@H]2N=C(c3ccccn3)c3cc(Cl)c(C(F)(F)F)cc3-n3c(C)cnc32)CC1 [Example 40] and answer again.
### Response 24.8 mg/kg

### Prompt Now consider CCOC(=O)COC(=O)CC[C@@H]1N=C(c2ccccn2)c2cc(Cl)ccc2-n2c(C)cnc21 [Example 38] and answer again.
### Response 25 mg/kg

### Prompt Now consider COC(=O)CC[C@@H]1N=C(c2ccccn2)c2cc(Br)ccc2-n2c(C)cnc21 [Remimazolam, reference compound] and answer again.
### Response 40 mg/kg

---

Assign 2ED50 duration to each entry below.
# Test system: SD rats
# procedure summary: animal or person
# Assay type: in vivo
# assay setup: SD rats, single tail vein injection at 2×ED50; time from disappearance to recovery of righting reflex
Give just the number in min; leave the unit off.

### Prompt Query 2ED50 duration on SD rats for CCOC(=O)COC(=O)CC[C@@H]1N=C(c2ccccn2)c2cc(Cl)c(OC(F)(F)F)cc2-n2c(C)cnc21
### Response 0.58

### Prompt Now consider Cc1cc2c(c(C)c1C)C(c1ccccn1)=N[C@@H](CCC(=O)OCC(=O)OC(C)C)c1ncc(C)n1-2 and answer again.
### Response 2.47

### Prompt Now consider Cc1cnc2n1-c1c(Cl)c(Cl)c(Cl)c(Cl)c1C(c1ccccn1)=N[C@H]2CCC(=O)OCOC(=O)OC(C(C)C)C(C)C and answer again.
### Response 1.23

### Prompt Now consider CCOC(=O)C(C)(C)OC(=O)CC[C@@H]1N=C(c2ccccn2)c2c(cc(C)c(Cl)c2C)-n2c(C)cnc21 and answer again.
### Response 2.38

### Prompt Now consider CCOC(=O)COC(=O)CC[C@@H]1N=C(c2ccccn2)c2cc(Br)c(Br)cc2-n2c(C)cnc21 and answer again.
### Response 3.08

### Prompt Now consider Cc1cnc2n1-c1cc(Br)c(Br)cc1C(c1ccccn1)=N[C@H]2CCC(=O)OC1(C(=O)OOC2CC(Cl)C2)CC1 (stereo partly shown) and answer again.
### Response 3.15

### Prompt Now consider CCC(CC)OC(=O)OCOC(=O)CC[C@@H]1N=C(c2ccccn2)c2cc(Br)ccc2-n2c(C)cnc21 and answer again.
### Response 3.56

---

# System: SD rats
# procedure summary: animal or person
# Type: in vivo
# assay setup: SD rats, single tail vein injection at 2×ED50; time from disappearance to recovery of righting reflex
Tag: True if measured 2ED50 duration is not below 3 min, False if it is.

### Prompt Entry COC(=O)OC(C)OC(=O)CC[C@@H]1N=C(c2ccccn2)c2cc(Br)c(Br)cc2-n2c(C)cnc21 (some centres unmarked) [Example 15] : is its 2ED50 duration no less than 3 min?
### Response False

### Prompt Now consider Cc1cnc2n1-c1cc(Br)c(Br)cc1C(c1ccccn1)=N[C@H]2CCC(=O)OCOC(=O)OC(C)C(C)C (some centres unmarked) [Example 13] and answer again.
### Response True

### Prompt Now consider COC(=O)COC(=O)CC[C@@H]1N=C(c2ccccn2)c2cc(F)c(OC)cc2-n2c(C)cnc21 [Example 27] and answer again.
### Response False

### Prompt Now consider COC(=O)C(C)(C)OC(=O)CC[C@@H]1N=C(c2ccccn2)c2cc(Br)c(Cl)cc2-n2c(C)cnc21 [Example 24] and answer again.
### Response False

### Prompt Now consider CCOC(=O)COC(=O)CC[C@@H]1N=C(c2ccccn2)c2cc(Br)ccc2-n2c(C)cnc21 [Example 57] and answer again.
### Response True

### Prompt Now consider COC(=O)C(C)OC(=O)CC[C@@H]1N=C(c2ccccn2)c2cc(Br)c(Br)cc2-n2c(C)cnc21 (some centres unmarked) [Example 22] and answer again.
### Response True

### Prompt Now consider CCCOC(=O)C1(OC(=O)CC[C@@H]2N=C(c3ccccn3)c3c(cc(OC(F)(F)F)c(Cl)c3C)-n3c(C)cnc32)CC1 [Example 75] and answer again.
### Response False

### Prompt Now consider CCCOC(=O)OCOC(=O)CC[C@@H]1N=C(c2ccccn2)c2c(ccc(Br)c2F)-n2c(C)cnc21 [Example 72] and answer again.
### Response True

### Prompt Now consider COC(=O)C1(OC(=O)CC[C@@H]2N=C(c3ccccn3)c3cc(Cl)c(C)c(C)c3-n3c(C)cnc32)CC1 [Example 79] and answer again.
### Response False

### Prompt Now consider Cc1cnc2n1-c1cc(Br)c(Br)cc1C(c1ccccn1)=N[C@H]2CCC(=O)OC(C)OC(=O)OC(C)C (some centres unmarked) [Example 17] and answer again.
### Response True

### Prompt Now consider Cc1cnc2n1-c1cc(C(F)(F)F)c(Cl)cc1C(c1cccnc1)=N[C@H]2CCC(=O)OCOC(=O)OC(C)C [Example 32] and answer again.
### Response True

### Prompt Now consider Cc1c(Br)cc2c(c1Cl)-n1c(C)cnc1[C@H](CCC(=O)OC(C)(C)NC(=O)OC1CCC1)N=C2c1ccccn1 [Example 66] and answer again.
### Response True

### Prompt Now consider CCCOC(=O)OCOC(=O)CC[C@@H]1N=C(c2ccccn2)c2cc(Br)ccc2-n2c(C)cnc21 [Example 47] and answer again.
### Response True

---

# Test system: SD rats
# procedure summary: animal or person
# Type: in vivo
# assay setup: SD rats, tail vein injection
measure: Quality of recovery

Solved cases (5 shown):
molecule	experimental target	data value
COC(=O)C1(OC(=O)CC[C@@H]2N=C(c3ccccn3)c3cc(Cl)c(Cl)c(Cl)c3-n3c(C)cnc32)CC1	SD rats	+ (“+” means <1 min)
C/C=C/C1CC(OCOC(=O)COC(=O)CC[C@@H]2N=C(c3ccccn3)c3cc(Br)c(Cl)cc3-n3c(C)cnc32)C(Br)CC1C(F)(F)F (stereo partly shown)	SD rats	++ (“++” means 1-3 min)
COC(=O)COC(=O)CC[C@@H]1N=C(c2ccccn2)c2cc(Br)c(Br)cc2-n2c(C)cnc21	SD rats	++ (“++” means 1-3 min)
Cc1cnc2n1-c1ccc(Br)cc1C(c1ccccn1)=N[C@H]2CCC(=O)OC(C)OC(=O)OC(C)C (stereo partly shown)	SD rats	+ (“+” means <1 min)
CCCOC(=O)OCOC(=O)CC[C@@H]1N=C(c2ccccn2)c2c(ccc(Br)c2F)-n2c(C)cnc21	SD rats	++ (“++” means 1-3 min)

Would you kindly look at the next entry?
### Prompt Fill in the blank: the reported Quality of recovery of CCOC(=O)COC(=O)CC[C@@H]1N=C(c2ccccn2)c2cccc(Cl)c2-n2c(C)cnc21 is ____.
### Response ++ (“++” means 1-3 min)
